PROPERTY_NAME: melting point (°C)

Some solved entries appear below for comparison.
COc1ccc(C(=O)Nc2cnn3c2C(=O)N(c2ccc(C(F)(F)F)cc2)C[C@@H]3C)c(F)c1: 214.58
C[C@H]1CN(c2ccc(C(F)(F)F)c(CF)c2)C(=O)c2c(NC(=O)c3cccnc3N)cnn21: 176.26

1 = C[C@H]1CN(c2ccc(C(F)(F)F)cc2)C(=O)c2c(NC(=O)c3c[nH]c(N)n3)cnn21
2 = Cc1cc(C(=O)Nc2cnn3c2C(=O)N(c2ccc(C(F)(F)F)c(F)c2)C[C@@H]3C)cc(C)n1
[in] Between the two listed entries 1 and 2 , which has its melting point at the higher number? Reply briefly: the label of your chosen item.
[out] 1
(1: 272.72 °C, 2: 148.36 °C)

* * *

Molecular target: human mGlu2 receptor (Homo sapiens)
Construct: expressed in transfected cells; host or cells: CHO cells
Test: [35S]GTPγS binding assay (mGluR2 negative allosteric modulation, glutamate ~EC80 60 μM)
Assay type: biochemical
Conditions: membranes from CHO cells transfected with human mGlu2 receptor; glutamate ~EC80 (60 μM); pIC50 = −log IC50 (M); read-out: GTPγS-hmGluR2 anGT pIC50 (converted)
PROPERTY_NAME: IC50 (M)

Some solved entries appear below for comparison.
COc1cccc(C(=O)Nc2cnn3c2C(=O)N(c2ccc(C(F)(F)F)cc2)C[C@@H]3C)n1 [Co. No. 20]: 4.57e-09
C[C@H]1CN(c2ccc(C(F)(F)F)cc2)C(=O)c2c(NC(=O)c3cccnc3)cnn21 [Co. No. 28]: 7.59e-09
Cc1cnc(N)c(C(=O)Nc2cnn3c2C(=O)N(c2ccc(C(F)(F)F)c(C)c2)C[C@@H]3C)c1 [Co. No. 197]: 1.32e-09
Cc1cncc(C(=O)Nc2cnn3c2C(=O)N(c2ccc(C(F)(F)F)c(Cl)c2)C[C@@H]3C)c1C [Co. No. 133]: 3.31e-09
C[C@H]1CN(c2ccc(S(F)(F)(F)(F)F)cc2)C(=O)c2c(NC(=O)c3cccnc3)cnn21 [Co. No. 175]: 3.16e-09

P = Cc1cc(C(=O)Nc2cnn3c2C(=O)N(c2ccc(C(F)(F)F)cc2)C[C@@H]3C)no1 [Co. No. 72]
Q = C[C@H]1CN(c2ccc(C(F)(F)F)cc2)C(=O)c2c(NC(=O)c3cnn(C)c3)cnn21 [Co. No. 86]
[in] Among P and Q , whose measured IC50 is the smaller figure? Reply briefly: the label of your chosen item.
[out] P
(P: 4.27e-08 M, Q: 1.91e-07 M)

* * *

Biological target: human mGlu2 receptor (Homo sapiens, UniProt Q14416)
Construct: expressed in transfected cells; host or cells: CHO cells
Sequence (Q14416 19-872): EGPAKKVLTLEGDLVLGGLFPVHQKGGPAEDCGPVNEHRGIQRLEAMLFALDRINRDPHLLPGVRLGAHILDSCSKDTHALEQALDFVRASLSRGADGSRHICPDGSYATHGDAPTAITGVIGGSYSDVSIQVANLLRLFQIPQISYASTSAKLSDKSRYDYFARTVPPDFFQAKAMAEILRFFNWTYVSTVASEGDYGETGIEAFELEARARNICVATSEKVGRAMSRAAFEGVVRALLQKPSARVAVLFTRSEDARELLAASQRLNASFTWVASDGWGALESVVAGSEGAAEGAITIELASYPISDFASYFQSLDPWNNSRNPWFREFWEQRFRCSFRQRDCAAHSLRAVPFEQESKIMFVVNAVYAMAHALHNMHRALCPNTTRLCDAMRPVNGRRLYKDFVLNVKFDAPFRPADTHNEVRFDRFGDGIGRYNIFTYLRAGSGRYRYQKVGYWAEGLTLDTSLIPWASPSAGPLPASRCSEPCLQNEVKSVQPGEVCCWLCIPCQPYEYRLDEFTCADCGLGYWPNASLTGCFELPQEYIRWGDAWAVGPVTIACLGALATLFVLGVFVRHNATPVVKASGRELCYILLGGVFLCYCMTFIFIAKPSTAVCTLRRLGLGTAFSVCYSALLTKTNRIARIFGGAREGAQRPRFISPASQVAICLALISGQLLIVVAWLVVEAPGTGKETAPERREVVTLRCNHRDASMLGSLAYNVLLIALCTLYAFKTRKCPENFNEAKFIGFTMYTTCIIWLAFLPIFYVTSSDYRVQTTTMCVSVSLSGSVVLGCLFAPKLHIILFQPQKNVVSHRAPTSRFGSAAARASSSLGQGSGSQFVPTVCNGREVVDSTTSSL
Test: [35S]GTPγS binding assay (mGluR2 negative allosteric modulation, glutamate ~EC80 60 μM)
Type: biochemical
Conditions: membranes from CHO cells transfected with human mGlu2 receptor; glutamate ~EC80 (60 μM); pIC50 = −log IC50 (M); read-out: GTPγS-hmGluR2 anGT pIC50 (converted)
PROPERTY_NAME: IC50 (M)

Some solved entries appear below for comparison.
C[C@H]1CN(c2ccc(Cl)c(Cl)c2)C(=O)c2c(NC(=O)c3cccnc3N)cnn21 [Co. No. 185]: 1.07e-09
Cc1cncc(C(=O)Nc2cnn3c2C(=O)N(c2ccc(C(F)(F)F)c(C)c2)C[C@@H]3C)c1 [Co. No. 115]: 3.39e-09
COc1cc(N2C[C@H](C)n3ncc(NC(=O)c4ccnc(C)c4)c3C2=O)ccc1C(F)(F)F [Co. No. 123]: 2.63e-08
Cc1cnc(N)c(C(=O)Nc2cnn3c2C(=O)N(c2ccc(S(F)(F)(F)(F)F)cc2)C[C@@H]3C)c1 [Co. No. 200]: 1.48e-09
Cc1cc(N2C[C@H](C)n3ncc(NC(=O)c4cnccn4)c3C2=O)ccc1C(F)(F)F [Co. No. 114]: 2.51e-09
Cc1cc(C(=O)Nc2cnn3c2C(=O)N(c2ccc(C(F)(F)F)cc2)C[C@@H]3C)nc(N)n1 [Co. No. 180]: 4.37e-08
Cc1c(F)cncc1C(=O)Nc1cnn2c1C(=O)N(c1ccc(C(F)(F)F)c(Cl)c1)C[C@@H]2C [Co. No. 135]: 2.29e-09
C[C@H]1CN(c2ccc(C(F)(F)F)c(Cl)c2)C(=O)c2c(NC(=O)c3cccnc3NCCO)cnn21 (racemic) [Co. No. 214]: 5.25e-10

a = C[C@H]1CN(c2ccc(C(F)(F)F)cc2)C(=O)c2c(NC(=O)c3ccc(C#N)cn3)cnn21 [Co. No. 85]
b = C[C@H]1CN(c2ccc(C(F)(F)F)c(Cl)c2)C(=O)c2c(NC(=O)c3cccnc3N)cnn21 [Co. No. 182]
[in] Between the two listed entries a and b , which has its IC50 at the higher number? Reply briefly: the label of your chosen item.
[out] a

* * *

Biological target: human mGlu2 receptor (Homo sapiens, UniProt Q14416)
Construct: expressed in transfected cells; host or cells: CHO cells
Test: [35S]GTPγS binding assay (mGluR2 negative allosteric modulation, glutamate ~EC80 60 μM)
Assay type: biochemical
Conditions: maximal % inhibition relative to the control glutamate response (EC80 glutamate); read-out: GTPγS-hmGluR2 anGT Emax
PROPERTY_NAME: Emax (%)

C[C@H]1CN(c2ccc(C(F)(F)F)cc2)C(=O)c2c(NC(=O)c3ccccn3)cnn21 [Co. No. 24]: 102
O=C(Nc1cnn2c1C(=O)N(c1ccc(C(F)(F)F)cc1)CC2)c1cccnc1 [Co. No. 190]: 102
Cc1cc(N2C[C@H](C)n3ncc(NC(=O)c4cncc(F)c4)c3C2=O)ccc1C(F)(F)F [Co. No. 107]: 108
Cc1c(F)cncc1C(=O)Nc1cnn2c1C(=O)N(c1ccc(C(F)(F)F)c(Cl)c1)C[C@@H]2C [Co. No. 135]: 108
COc1cc(C(=O)Nc2cnn3c2C(=O)N(c2ccc(C(F)(F)F)cc2)C[C@@H]3C)ccc1F [Co. No. 51]: 113
COc1nc(N2C[C@H](C)n3ncc(NC(=O)c4ccccc4)c3C2=O)ccc1C(F)(F)F [Co. No. 70]: 108
C[C@H]1CN(c2ccc(C(F)(F)F)cc2)C(=O)c2c(NC(=O)c3ccncc3)cnn21 [Co. No. 55]: 105
Cc1cc(N)ncc1C(=O)Nc1cnn2c1C(=O)N(c1ccc(C(F)(F)F)cc1)C[C@@H]2C [Co. No. 163]: 106

* * *

PROPERTY_NAME: melting point (°C)

COc1ccc(F)cc1C(=O)Nc1cnn2c1C(=O)N(c1ccc(C(F)(F)F)cc1)C[C@@H]2C [Co. No. 10]: 204.35

I = COc1cc(N2C[C@H](C)n3ncc(NC(=O)c4cncc(F)c4)c3C2=O)ccc1C(F)(F)F [Co. No. 116]
II = C[C@H]1CN(c2ccc(C(F)(F)F)cc2)C(=O)c2c(NC(=O)c3ccc(N)nc3)cnn21 [Co. No. 8]
III = COCc1ccccc1C(=O)Nc1cnn2c1C(=O)N(c1ccc(C(F)(F)F)cc1)C[C@@H]2C [Co. No. 78]
[in] Arrange items by their melting point values in increasing order. Output spec: labels arranged per the requested ranking.
[out] III, I, II
(III: 88.18 °C, I: 162.96 °C, II: 240.39 °C)

* * *

PROPERTY_NAME: melting point (°C)

COc1cc(N2C[C@H](C)n3ncc(NC(=O)c4ccnc(C)c4)c3C2=O)ccc1C(F)(F)F: 157.12
COCc1cncc(C(=O)Nc2cnn3c2C(=O)N(c2ccc(C(F)(F)F)c(Cl)c2)C[C@@H]3C)c1: 170.75

a = C[C@H]1CN(c2ccc(C(F)(F)F)cc2)C(=O)c2c(NC(=O)c3ccc(C(N)=O)cn3)cnn21
b = C[C@H]1CN(c2ccc(C(F)(F)F)cc2)C(=O)c2c(NC(=O)c3cncc(F)c3)cnn21
[in] Among a and b , whose measured melting point is the smaller figure? Reply briefly: the label of your chosen item.
[out] b

* * *

Biological target: human mGlu2 receptor (Homo sapiens)
Construct: expressed in transfected cells; host or cells: CHO cells
Assay: [35S]GTPγS binding assay (mGluR2 negative allosteric modulation, glutamate ~EC80 60 μM)
Format: biochemical
Settings: maximal % inhibition relative to the control glutamate response (EC80 glutamate); read-out: GTPγS-hmGluR2 anGT Emax
PROPERTY_NAME: Emax (%)

Cc1cc(C(=O)Nc2cnn3c2C(=O)N(c2ccc(C(F)(F)F)cc2)C[C@@H]3C)cnc1N (racemic): 109
Cc1ncccc1C(=O)Nc1cnn2c1C(=O)N(c1ccc(C(F)(F)F)cc1)C[C@@H]2C: 104
C[C@H]1CN(c2ccc(C(F)(F)F)cc2)C(=O)c2c(NC(=O)c3cnccn3)cnn21: 112
C[C@H]1CN(c2ccc(C(F)(F)F)c(Cl)c2)C(=O)c2c(NC(=O)c3cccnc3NCCO)cnn21 (racemic): 112
